- PROTOCOL_DESCRIPTION: NCI Yeast Anticancer Drug Screen. Data for the bub3 strain (AID 167)
- CONDITIONS_USED: S. cerevisiae bub3 mutant strain, at 50.0 µM, hits give high values
About 79,000 compounds went through this panel and 15% of them were active in at least one assay; those are over-represented in the sample as a whole.
MEASUREMENT_KIND: growth inhibition (%)
Your answer should be a plain number; it is taken to be in %.

# input Item `CCOc1ccncc1[N+](=O)[O-]` has what recorded growth inhibition?
# output 10.1

# input GET /values?readout=growth inhibition&item= `CCCCCCCCNC(=O)C(C)C`
# output -18.6

# input // lookup growth inhibition for `Cc1ccc(O)c(N)c1`
# output -9.6

# input Given `CNc1ccccc1C(N)=O` , state its recorded growth inhibition.
# output -7.85

# input compound: `S=C(Sc1ccc(Cl)cc1)Sc1ccc(Cl)cc1` ; wanted: its growth inhibition
# output 29.6

# input Endpoint output: growth inhibition of `CCNc1ncnc2[nH]ncc12` . Value?
# output 3.9

# input I am curious: what growth inhibition value has been reported for CC(=O)OC(C)c1cccc(C#N)c1 (centres undefined) ?
# output -2.95

# input Endpoint output: growth inhibition of `CCOc1ccc(C(=O)O)cc1` . Value?
# output 8.2

# input Which growth inhibition value belongs to COC1OC(C(COC(C)=O)OC(C)=O)C(OC(C)=O)C(OC(C)=O)C1OC(C)=O (centres undefined) ?
# output 52.2

# input Endpoint output: growth inhibition of `COc1ccc(C(=O)C(=O)c2ccccc2)cc1` . Value?
# output 11.1

# input Which growth inhibition value is on record for `Cc1nc(O)cc(=O)[nH]1` ?
# output -15.3

# input What growth inhibition value was documented for this compound, `Cc1ccccc1NC(=O)Oc1ccc(Cl)cc1C(=O)c1ccccc1` ?
# output 21.2

# input Field request: growth inhibition | item: CC(=O)OC/C(C)=C\CC(C)COC(C)=O (centres undefined)
# output -18.6

# input Which growth inhibition value belongs to C=C1CC2(OC1=O)C(=O)N(C)c1ccc(I)cc12 (centres undefined) ?
# output 91.5

# input Any idea what growth inhibition was measured for `O=S(=O)(O)c1ccc(O)c(C2CCCCC2)c1` ?
# output -12.2

# input Name the recorded growth inhibition for `NC(=O)c1cc2c3ccccc3ccn2c1-c1ccccc1` .
# output 64

# input Which value of growth inhibition has been reported for `O=C(N/N=C\c1ccc(Cl)cc1Cl)c1ccncc1` in the records?
# output -7

# input Suppose we examine the compound `O=C1NC(=O)/C(=C\c2ccncc2)N1` ; what growth inhibition value has been reported?
# output -19.8

# input # query: growth inhibition of entry `CC1(C)CC(=O)C=C(N)C1`
# output -4.7

# input Name the reported growth inhibition value associated with the compound CCCC1OC(c2ccco2)OCC1CC (centres undefined)
# output -0.05

# input So what's the measured growth inhibition for this one? NNC(=O)N/N=C1\C(=O)N(c2nccs2)C(=O)C(=O)C1c1nc2ccccc2s1 (centres undefined)
# output -5.15

# input // returns reported growth inhibition for input `CCCCN(C(=O)CC)c1ccccc1`
# output -12.9

# input So what does the record say about growth inhibition for `CCOC(=O)/C(C)=C\c1ccc(OC)c(OC)c1` ?
# output 18.4

# input Which measured growth inhibition value corresponds to `Nc1ncnc(Nc2ccc(C(F)(F)F)cc2)n1` ?
# output 25.6

# input Tell me the measured growth inhibition of `CC(=O)c1cccc(N(C)S(=O)(=O)c2ccc(C)cc2)c1` , please.
# output 45.1

# input Form field: reported growth inhibition of `CCOC(=O)c1ccc(NC(=O)Nc2nccs2)cc1`
# output -12.4

# input # lookup: growth inhibition of `CCCCCC#CC(=O)O`
# output -7.3

# input Consider the compound `Cc1ccc(C2CCCCC2)cc1Br` and give its measured growth inhibition.
# output 9.45

# input May I ask what growth inhibition has been recorded for `COc1ccc2c(Cl)cc(NC(=O)Nc3c(C)cccc3C)nc2c1` ?
# output 21.1
